# Tested on: rat neonatal microglia
# TEST NAME: Microglia LDH release
# Format: cell-based
# EXPERIMENTAL CONDITIONS: concentration causing 50% of maximal LDH release triggered by 0.1% Triton X-100
ENDPOINT LABEL: LDH LDH50

// known answers, use as guide
[ask] Quickly give me recorded LDH LDH50 for CCCCn1c2ccccc2c2ccnc(C3=C[C@@]4(O)CC/C=C\CCCCN5CC[C@@H]3[C@]3(C[C@@H]6/C=C\CCCCN6[C@H]34)C5)c21 [Compound 6d, 9N-butylmanzamine A]
[reply] >10 µM

[ask] Quickly give me recorded LDH LDH50 for COc1ccc2[nH]c3c(C4=C[C@@]5(O)CC/C=C\CCCCN6CC[C@@H]4[C@]4(C[C@@H]7/C=C\CCCCN7[C@H]45)C6)nccc3c2c1 [Compound 21a, 6-Methoxymanzamine A]
[reply] >10 µM

Next:
[ask] Quickly give me recorded LDH LDH50 for CC(C)(C)Cn1c2ccccc2c2ccnc(C3=C[C@@]4(O)CC/C=C\CCCCN5CC[C@@H]3[C@]3(C[C@@H]6/C=C\CCCCN6[C@H]34)C5)c21 [Compound 6g, 9N-neopentylmanzamine A]
[reply] >10 µM

----------
# TEST NAME: in vitro
# EXPERIMENTAL CONDITIONS: dog, MDCK-MDR1, pH 7.4
ENDPOINT LABEL: efflux ratio at 2 h, 50 μM

[ask] Quickly give me recorded efflux ratio at 2 h, 50 μM for O[C@]12C=C(c3nccc4c3[nH]c3ccccc34)[C@@H]3CCN(CCCC/C=C\CC1)C[C@@]31C[C@@H]3/C=C\CCCCN3[C@H]12
[reply] < 1
